List of solubility values.
experimental protocol: Solubility test in water or organic solvent
Format: physicochemical
applied conditions: thermodynamic from solid; 0.1 g sample in 1 ml water, room temperature, visually observed; read-out: Solubility in Water

molecule: CCCc1ccc(OC(C)=O)c(-c2cc(CCC)ccc2OC(C)=O)c1 [Diacetyl derivative]
solubility: < 25 mg/mL
//
molecule: CCCCCCCC(=O)Oc1ccc(CCC)cc1-c1cc(CCC)ccc1O [Monooctanoyl derivative]
solubility: < 25 mg/mL
//
molecule: CCCc1ccc(O)c(-c2cc(CCC)ccc2OC(C)=O)c1 [Monoacetyl derivative]
solubility: < 25 mg/mL
//
molecule: CCCc1ccc(O)c(-c2cc(CCC)ccc2O)c1 [Propylbiphenol, 2,2′-dihydroxy-5,5′-di-n-propyl-biphenyl, reference compound]
solubility: < 25 mg/mL
//
molecule: CCCc1ccc(OC(=O)CC)c(-c2cc(CCC)ccc2OC(=O)CC)c1 [Dipropionyl derivative]
solubility: < 25 mg/mL

====

experimental protocol: Solubility test in water or organic solvent
Type: physicochemical
applied conditions: organic solvent or mixture, thermodynamic from solid; 0.1 g sample in 1 ml n-hexane, room temperature, visually observed; read-out: Solubility in n-hexane
endpoint: solubility

molecule: CCCc1ccc(O)c(-c2cc(CCC)ccc2O)c1 [Propylbiphenol, 2,2′-dihydroxy-5,5′-di-n-propyl-biphenyl, reference compound]
result: < 25 mg/mL

====

experimental protocol: Solubility test in water or organic solvent
Assay type: physicochemical
applied conditions: organic solvent or mixture, thermodynamic from solid; 0.1 g sample in 1 ml methanol, room temperature, visually observed; read-out: Solubility in Methanol

compound: CCCc1ccc(O)c(-c2cc(CCC)ccc2O)c1 [Propylbiphenol, 2,2′-dihydroxy-5,5′-di-n-propyl-biphenyl, reference compound]
solubility: 25 to 100 mg/mL

====

experimental protocol: Solubility test in water or organic solvent
Assay type: physicochemical
applied conditions: 0.1 g sample in 1 ml n-hexane, room temperature, visually observed

smiles str: CCCc1ccc(O)c(-c2cc(CCC)ccc2OC(C)=O)c1
Solubility in n-hexane: ∘
//
smiles str: CCCCCCCC(=O)Oc1ccc(CCC)cc1-c1cc(CCC)ccc1O
Solubility in n-hexane: ∘
//
smiles str: CCCc1ccc(OC(=O)CC)c(-c2cc(CCC)ccc2OC(=O)CC)c1
Solubility in n-hexane: ∘
//
smiles str: CCCc1ccc(OC(C)=O)c(-c2cc(CCC)ccc2OC(C)=O)c1
Solubility in n-hexane: ∘
